Ki overview
Measurement Target: Mu-type opioid receptor (Cavia porcellus, UniProt P97266)
Sequence (P97266 whole entry): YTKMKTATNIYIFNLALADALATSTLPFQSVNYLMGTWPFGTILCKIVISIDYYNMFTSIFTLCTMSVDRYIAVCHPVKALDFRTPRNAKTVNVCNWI
Protocol Summary: Binding affinity was determined towards opioid receptor mu1 using [3H]DAMGO as radioligand

Req: Any idea what Ki came out for `C[C@H]1[C@H]2Cc3ccc(NC=O)cc3[C@]1(C)CCN2CC1CC1` on Mu-type opioid receptor (Cavia porcellus, UniProt P97266)?
Resp: 1.1 nM

Req: Next: `C[C@H]1C2Cc3ccc(N(C)C=O)cc3[C@@]1(C)CCN2CC1CC1`
Resp: 550 nM

Req: Next: `C[C@H]1C2Cc3ccc(NC(=O)c4ccccc4)cc3[C@@]1(C)CCN2CC1CC1`
Resp: 570 nM

Req: Next: `CC[C@@]12CCN(CC3CC3)C(C(=O)c3ccc(NC=O)cc31)[C@@H]2C`
Resp: 6.1 nM

Req: Next: `C[C@H]1C2Cc3ccc(NC=O)cc3[C@@]1(C)CCN2CC1CC1`
Resp: 1.9 nM

====

Heads up, these molecules all have Ki values measured for Kappa-type opioid receptor (Cavia porcellus, UniProt P41144).
Numbers only; they are read as nM.

| Item Smiles | Ki, nM |
| --- | --- |
| CC(=O)Nc1ccc2c(c1)[C@@]1(C)CCN(CC3CC3)C(C2)[C@@H]1C | 130 |
| C[C@H]1C2Cc3ccc(NC=O)cc3[C@@]1(C)CCN2CC1CC1 | 0.85 |

Req: Could you share which Ki value was measured for `CC[C@@]12CCN(CC3CC3)C(C(=O)c3ccc(NC=O)cc31)[C@@H]2C` ?
Resp: 1.2
